- Test system: HCV-specific CD8+ T cells in PBMC
- Assay type: cell-based, human
- setup-conditions: subject P6, unstimulated PBMC
observed-property: tetramer positive cells of CD8+ T cells, Ex vivo

{"sequence-chain": "CINGVCWTV", "reported-value": "0.42%"}
{"sequence-chain": "ILAGYGAGV", "reported-value": "<0.02%"}
{"sequence-chain": "KLVALGINAV", "reported-value": "0.09%"}
{"sequence-chain": "ALYDVVTKL", "reported-value": "0.23%"}
